Biological target: T1, CRBN, Q96SW2;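 also: pooled lentiviral library of zinc finger degron-EGFP fusions in mCherry-positive Jurkat cells, FACS-sorted after compound exposure, with degron abundance counted by next-generation sequencing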
T1 chain: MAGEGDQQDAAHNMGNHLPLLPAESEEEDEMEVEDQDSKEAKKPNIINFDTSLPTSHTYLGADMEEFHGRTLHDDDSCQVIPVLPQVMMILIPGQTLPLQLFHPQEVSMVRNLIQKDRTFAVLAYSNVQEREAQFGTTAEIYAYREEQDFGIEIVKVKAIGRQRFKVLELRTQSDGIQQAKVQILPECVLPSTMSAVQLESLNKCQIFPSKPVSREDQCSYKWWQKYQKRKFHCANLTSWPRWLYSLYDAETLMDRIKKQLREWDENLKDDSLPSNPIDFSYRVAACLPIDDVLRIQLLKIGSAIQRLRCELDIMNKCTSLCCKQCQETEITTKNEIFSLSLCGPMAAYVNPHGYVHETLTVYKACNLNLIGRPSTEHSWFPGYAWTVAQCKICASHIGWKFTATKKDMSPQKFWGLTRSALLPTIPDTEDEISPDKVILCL
Test: log2 fold change of degron read counts, EGFP-low vs EGFP+ sorted cells (limma voom), compound-induced degradation; higher = more compound-induced degradation of the degron-EGFP fusion; degrons are variants of IKZF1/3 zinc finger 2; compound dose not given here
Conditions: Jurkat; 18 h; compound: compound 33 (diphenyl IMiD analogue)
The full ranking holds about 8,300 sequences; the median of “log2 fold change of degron read counts, EGFP-low vs EGFP+ sorted cells (limma voom), compound-induced degradation” is about -1.1, and the highest 2% start at about 3.2. Many of the other results were omitted from the sample, so the highest values are more common in it than they were.
// reported log2 fold change of degron read counts for each item listed
Quick one: just the number, no unit, thanks!

Solved cases below.
FQCPICGAPFTQKGNLLRHIKL [46F_47Q_49P_50I_52G_53A_54P_55F_67L_, Q9UKT9]: 2.53
FECDICGAIFTQKGNLLRHIKL [46F_47E_49D_50I_52G_53A_54I_55F_67L_, Q9UKT9]: -0.965
FFCNQCGAKFTQKGNLLRHIKL [46F_47F_49N_50Q_52G_53A_54K_55F_67L_, Q9UKT9]: -1.59
FQCPICGAFFTQKGNLLRHIKL [46F_47Q_49P_50I_52G_53A_54F_55F_67L_, Q9UKT9]: 2.3

Here is another sequence to look at.
query: Item under review: FSCDICGAQFTQKGNLLRHIKL [46F_47S_49D_50I_52G_53A_54Q_55F_67L_, Q9UKT9] . Reported log2 fold change of degron read counts?
result: 0.198

The measurements presented in this section are drawn from the supplement of paper PMC12645437.
